- system_under_test: T1, purified recombinant monkey (macaque) CD27 (macaque)
- T1 construct: The paragraph speaks of cynomolgus macaques as the model; the protein itself is only called macaque / monkey CD27; Captured with anti-Flag antibody in one format; also called monkey CD27
- assay_info: ELISA on plate-bound monkey CD27, half-max binding
# EC50 values compiled below
The response must be a number in µg/mL with no trailing unit.

The reported value for 3H12-1E12 (antibody, V domains shown, Human IgG from hybridoma; Two subclones (3H12-1C8 and 3H12-1E12) are both called 3H12; also called 3H12-1C8) VH: QVQLVESGGGVVQPGRSLRLSCATSGFTFSSYDMHWVRQAPGKGLEWVAVIWYDGSNKYYADSVKGRFTISRDNSKNTLYLQMNSLGDEDTAVYYCARGSGNWGFFDYWGQGTLVTVSS VL: DIQMTQSPSSLSASVGDRVTITCRASQGISRWLAWYQQKPEKAPKSLIYAASSLQSGVPSRFSGSGSGTDFTLTISSLQPEDFATYYCQQYNTYPRTFGQGTKVEIK in terms of EC50 is 0.123

The reported value for 2G9-1D11 (antibody, V domains shown, Human IgG from hybridoma) VH: QVQLVESGGGVVQPGRSLRLSCAASGFTLSSHDIHWVRQAPGKGLEWVAVIWNDGSNKYYADSVKGRFTISRDNSTNSLFLQMNSLRAEDTAVYYCVRGTADLEHWDQGTLVTVSS VL: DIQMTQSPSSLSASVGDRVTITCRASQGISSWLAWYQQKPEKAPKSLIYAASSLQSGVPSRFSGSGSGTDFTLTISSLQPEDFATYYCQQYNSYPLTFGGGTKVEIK in terms of EC50 is 0.069

The reported value for 1H8-B4 (antibody, V domains shown, Human IgG from hybridoma) VH: QVQLVESGGGVVQPGRSLRLSCAASGFTFNIYDMHWVRQAPGKGLEWVAVIWYDGSNQYYADSVKGRFTISRDNSKNTLYLQMNILRAEDTAVYYCARGTHWGYFDYWGQGTLVTVSS VL: DIQMTQSPSSLSASVGDRVTITCRASQGISSWLAWYQQKPEKAPKSLIYAASNLQSGVPSRFSGSGSGTDFTLTISSLQPEDFATYYCQQYNSYPRTFGQGTKVEIK in terms of EC50 is 0.105

Cited source for all entries: patent US20120213771A1
